We begin with a simple list: items and their reported Cmax.
Assay: Pharmacokinetics of five absorbed components in rat serum after single or multiple gavage of BHGZD (UHPLC-Q-TRAP-MS/MS)
Conditions: male, Lewis, rat, serum, po, 21.4 g/kg
Report the figure in ng/mL without appending any unit label.

C[C@H]1CC[C@@]2(OC1)O[C@H]1C[C@H]3[C@@H]4CC[C@@H]5C[C@@H](O[C@@H]6O[C@H](CO)[C@H](O)[C@H](O)[C@H]6O[C@@H]6O[C@H](CO)[C@@H](O)[C@H](O)[C@H]6O)CC[C@]5(C)[C@H]4CC[C@]3(C)[C@H]1[C@@H]2C    5.41

Turning to the following compound.
I am curious: what Cmax value has been reported for "O=C(O)/C=C/c1ccccc1" ?
53.3

----------
Assay: Pharmacokinetics of five absorbed components in rat serum after single or multiple gavage of BHGZD (UHPLC-Q-TRAP-MS/MS)
Details: male, Lewis, rat, serum, po, 21.4 g/kg
Quick reference: half-life of the listed items.
Write the number in h without appending the unit.

O=C(O)/C=C/c1ccccc1 [Cinnamic acid]    2.36

In the following, a different compound is considered.
Look at this compound and give its reported half-life. C[C@H]1CC[C@@]2(OC1)O[C@H]1C[C@H]3[C@@H]4CC[C@@H]5C[C@@H](O[C@@H]6O[C@H](CO)[C@H](O)[C@H](O)[C@H]6O[C@@H]6O[C@H](CO)[C@@H](O)[C@H](O)[C@H]6O)CC[C@]5(C)[C@H]4CC[C@]3(C)[C@H]1[C@@H]2C [Timosaponin AIII]
4.98

----------
Test: Pharmacokinetics of five absorbed components in rat serum after single or multiple gavage of BHGZD (UHPLC-Q-TRAP-MS/MS)
Conditions: male, Lewis, rat, serum, po, 21.4 g/kg/day, Tmax, rat serum; BHGZD 21.4 g/kg/day gavage once a day for 12 days, multiple dose, sampled day 12; n = 8, mean ± SEM
From the text: Male Lewis rats, weighing 200–240 g, were purchased from Beijing Charles River Experimental Animals Co. Ltd. (Beijing, China). […] Animal experiments were approved and supervised by the National Institutes of Health guide for the care and use of Laboratory animals. […] Quantification for five absorbed compounds of BHGZD in rat serum were achieved by using a Shimadzu ultra-high-performance liquid chromatography tandem ion trap quadrupole Q-TRAP 6500 plus mass spectrometry (UHPLC-Q-TRAP-MS/MS). […]
Observable: Tmax (h)
Write down the numeric answer in h and omit the unit.

Report Tmax for "C[C@H]1CC[C@@]2(OC1)O[C@H]1C[C@H]3[C@@H]4CC[C@@H]5C[C@@H](O[C@@H]6O[C@H](CO)[C@H](O)[C@H](O)[C@H]6O[C@@H]6O[C@H](CO)[C@@H](O)[C@H](O)[C@H]6O)CC[C@]5(C)[C@H]4CC[C@]3(C)[C@H]1[C@@H]2C" please.
4.62

----------
Test: Pharmacokinetics of five absorbed components in rat serum after single or multiple gavage of BHGZD (UHPLC-Q-TRAP-MS/MS)
Conditions: male, Lewis, rat, serum, po, 21.4 g/kg
Observable: MRT last
Number plus unit, in that order.

C[C@H]1CC[C@@]2(OC1)O[C@H]1C[C@H]3[C@@H]4CC[C@@H]5C[C@@H](O[C@@H]6O[C@H](CO)[C@H](O)[C@H](O)[C@H]6O[C@@H]6O[C@H](CO)[C@@H](O)[C@H](O)[C@H]6O)CC[C@]5(C)[C@H]4CC[C@]3(C)[C@H]1[C@@H]2C    7.54 h

Quick one: MRT last for "O=C(O)/C=C/c1ccccc1" ?
3.66 h

----------
Assay: Pharmacokinetics of five absorbed components in rat serum after single or multiple gavage of BHGZD (UHPLC-Q-TRAP-MS/MS)
Conditions: male, Lewis, rat, serum, po, 21.4 g/kg
Observable: MRT inf (h)
Give the value in h but do not write h after it.

C[C@H]1CC[C@@]2(OC1)O[C@H]1C[C@H]3[C@@H]4CC[C@@H]5C[C@@H](O[C@@H]6O[C@H](CO)[C@H](O)[C@H](O)[C@H]6O[C@@H]6O[C@H](CO)[C@@H](O)[C@H](O)[C@H]6O)CC[C@]5(C)[C@H]4CC[C@]3(C)[C@H]1[C@@H]2C    9.92

# ---- query compound ----
Value lookup for MRT inf; key = "O=C(O)/C=C/c1ccccc1"
10.5

----------
In this section, each of the compounds is paired with its reported half-life.
Test: in vivo
Conditions: male, Lewis, rat, in vivo, po, 21.4 g/kg
Give the value, in units of h, as a plain number.

CC1(C)[C@@H](O[C@H]2O[C@H](C(=O)O)[C@@H](O)[C@H](O)[C@H]2O[C@@H]2O[C@H](C(=O)O)[C@@H](O)[C@H](O)[C@H]2O)CC[C@]2(C)[C@H]3C(=O)C=C4[C@@H]5C[C@@](C)(C(=O)O)CC[C@]5(C)CC[C@@]4(C)[C@]3(C)CC[C@@H]12    2.99

Okay, now this compound:
Need half-life of "O=c1c2cc(O)c(O)cc2oc2cc(O)c([C@@H]3O[C@H](CO)[C@@H](O)[C@H](O)[C@H]3O)c(O)c12" , thanks.
3.64

----------
Experiment: in vivo
Settings: male, Lewis, rat, in vivo, po, 21.4 g/kg
# MRT last annotations
Use h as the unit, but write only the number.

CC1(C)[C@@H](O[C@H]2O[C@H](C(=O)O)[C@@H](O)[C@H](O)[C@H]2O[C@@H]2O[C@H](C(=O)O)[C@@H](O)[C@H](O)[C@H]2O)CC[C@]2(C)[C@H]3C(=O)C=C4[C@@H]5C[C@@](C)(C(=O)O)CC[C@]5(C)CC[C@@]4(C)[C@]3(C)CC[C@@H]12 [Glycyrrhizic acid]    5.06

Now look at this one.
GET /values?readout=MRT last&item= O=c1c2cc(O)c(O)cc2oc2cc(O)c([C@@H]3O[C@H](CO)[C@@H](O)[C@H](O)[C@H]3O)c(O)c12 [Mangiferin]
3.6

----------
Test: Pharmacokinetics of five absorbed components in rat serum after single or multiple gavage of BHGZD (UHPLC-Q-TRAP-MS/MS)
Conditions: male, Lewis, rat, serum, po, 21.4 g/kg, Tmax, rat serum after BHGZD gavage; regimen not given
Observable: Tmax

Would you mind telling me what Tmax value was observed for "O=C(O)/C=C/c1ccccc1" ?
~18 min

----------
Test: in vivo
Conditions: male, Lewis, rat, in vivo, po, 21.4 g/kg
Parameter Cmax: see the listing below.
Express it in ng/mL; write the number only.

O=c1c2cc(O)c(O)cc2oc2cc(O)c([C@@H]3O[C@H](CO)[C@@H](O)[C@H](O)[C@H]3O)c(O)c12    48.1

Continue with the next molecule.
Any idea what Cmax was measured for "CC1(C)[C@@H](O[C@H]2O[C@H](C(=O)O)[C@@H](O)[C@H](O)[C@H]2O[C@@H]2O[C@H](C(=O)O)[C@@H](O)[C@H](O)[C@H]2O)CC[C@]2(C)[C@H]3C(=O)C=C4[C@@H]5C[C@@](C)(C(=O)O)CC[C@]5(C)CC[C@@]4(C)[C@]3(C)CC[C@@H]12" ?
15.6

----------
Experiment: in vivo
Conditions: male, Lewis, rat, in vivo, po, 21.4 g/kg
Each entry below carries its recorded MRT inf.
Report only the number, with the unit h understood.

O=c1c2cc(O)c(O)cc2oc2cc(O)c([C@@H]3O[C@H](CO)[C@@H](O)[C@H](O)[C@H]3O)c(O)c12    6.72

Fill in: MRT inf of "CC1(C)[C@@H](O[C@H]2O[C@H](C(=O)O)[C@@H](O)[C@H](O)[C@H]2O[C@@H]2O[C@H](C(=O)O)[C@@H](O)[C@H](O)[C@H]2O)CC[C@]2(C)[C@H]3C(=O)C=C4[C@@H]5C[C@@](C)(C(=O)O)CC[C@]5(C)CC[C@@]4(C)[C@]3(C)CC[C@@H]12" is ___
5.83
